Can you tell me Raw data [w/o Enzym] for the items I'm about to list?
Biological target: Rlig1-AMP (Homo sapiens, UniProt Q8N999)
Construct: made in house; host or cells: E. coli BL21 (DE3), pET15b-Rlig1
Sequence (Q8N999 whole entry): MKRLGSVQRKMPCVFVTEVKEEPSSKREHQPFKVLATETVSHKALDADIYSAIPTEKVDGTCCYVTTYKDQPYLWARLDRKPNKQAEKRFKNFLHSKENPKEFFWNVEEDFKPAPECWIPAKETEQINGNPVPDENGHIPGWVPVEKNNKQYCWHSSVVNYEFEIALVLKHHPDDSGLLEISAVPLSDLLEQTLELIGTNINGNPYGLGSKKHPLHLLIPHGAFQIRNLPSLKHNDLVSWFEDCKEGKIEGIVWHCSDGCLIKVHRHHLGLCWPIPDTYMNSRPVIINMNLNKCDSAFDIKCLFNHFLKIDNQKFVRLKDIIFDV
Experiment: FRET-based high-throughput screening of inhibitors for Rlig1-AMP
Assay type: biochemical
Details: HTS hits; without enzyme
Non-standard residues stand in square brackets, D forms with d. Residues, ends and D or L forms follow the SMILES beside them. *: point of attachment. Sta = CC(C)C[C@H](N)[C@@H](O)CC(=O)O; Isovaleryl = CC(C)CC(=O)*

Record excerpt, results attached:
| compound | value.type | result |
| --- | --- | --- |
| CC(C)CC(=O)N[C@H](C(=O)N[C@H](C(=O)N[C@@H](CC(C)C)[C@@H](O)CC(=O)N[C@@H](C)C(=O)N[C@@H](CC(C)C)[C@@H](O)CC(=O)O)C(C)C)C(C)C [Pepstatin] (Isovaleryl-VV[Sta]A[Sta]-OH) | Raw data [w/o Enzym] | 10682 |
| NC(=O)c1cnc2[nH]ccc2c1N[C@@H]1[C@@H]2CC3C[C@H]1C[C@@](O)(C3)C2 [Peficitinib] | Raw data [w/o Enzym] | 10770 |
| Cc1cc(Nc2ccc(NC(=O)c3ccc(Nc4ccnc5ccccc45)cc3)cc2)nc(N)n1 [Compound 1, SGI-1027, reference compound] | Raw data [w/o Enzym] | 8066 |

# batch: return Raw data [w/o Enzym] for each of the 3 compounds below
1. c1cnc(N2CCN(Cc3ccc4c(c3)OCO4)CC2)nc1 [Piribedil]
2. Cc1ccc(C(=O)Nc2ccc(S(=O)(=O)[O-])c3cc(S(=O)(=O)[O-])cc(S(=O)(=O)[O-])c23)cc1NC(=O)c1cccc(NC(=O)Nc2cccc(C(=O)Nc3cc(C(=O)Nc4ccc(S(=O)(=O)[O-])c5cc(S(=O)(=O)[O-])cc(S(=O)(=O)[O-])c45)ccc3C)c2)c1.[Na+].[Na+].[Na+].[Na+].[Na+].[Na+] [Suramin (sodium salt)]
3. Cn1ncnc2c(=O)n(C)c(=O)nc1-2 [Toxoflavin]

Ans:
1. 11071
2. 14498
3. 17205
